Give measured IC50, Eotaxin-1 assay, n = 2 for each item. Keep answers brief.
- Tested On: IL-13 (human IL-13, preparation not specified) (human, UniProt P35225 35-146, limits assumed)
- Sequence (P35225 35-146 limits assumed): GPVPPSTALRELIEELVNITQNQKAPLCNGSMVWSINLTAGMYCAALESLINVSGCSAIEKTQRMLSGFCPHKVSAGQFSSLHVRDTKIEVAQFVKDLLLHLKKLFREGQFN
- Procedure Summary: cell-based or functional assay
Write it as a number; the unit nM goes unstated.

Q. Which measured IC50, Eotaxin-1 assay, n = 2 value corresponds to antibody 643 (antibody, V domains shown, also called Ab 643; mAb 643) VH: EVQLVESGGGLVKPGGSLRLSCAASGFTFSNAWMSWVRQAPGKGLEWVGRIRSEIDGGTTNYAAPVKGRFTISRDDSKNTLYLQMNSLRTEDTAVYYCATDQVGAYYGDYYGMDVWGQGTLVTVSS VL: SYELTQPPSVSVSPGQTARITCSGDALPEKYAYWYQQKSGQAPVLVIYEDSKRPSGIPERFSGSSSGTMATLTISGAQVEDEADYYCHSTDSSGNHGVFGGGTKLTVL ?
A. 0.028

Q. Which measured IC50, Eotaxin-1 assay, n = 2 value corresponds to antibody 11.18.3 (antibody, V domains shown) VH: QVQLVESGGGVVQPGRSLRLSCVASGFTFSSYDMHWVRQAPGKGLEWVAVIWYDGSNKYYADSVQGRFTISRDNSKNTLYLQMNSLRAEDTAVYYCTSEDSSGWYDGWFDPWGQGTLVTVSS VL: DIQMTQSPSSLSASVGDRVTITCRASQGISNYLAWYQQKPGKVPKVLIYAASTLQSGVPSRFSGSGSGTDFTLTISSLQPEDVATYYCQKYNSAPFTFGPGTKVDIK ?
A. 0.304

Q. For the binder antibody 602 (antibody, V domains shown, also called mAb 602) VH: EVQLVESGGGLVKPGGSLRLSCAASGFTFSNAWMSWVRQAPGKGLEWVGRIRSKIDGGTINYAAPVKGRFTISRDDSKNTLYLQMNSLKTEDTAVYYCATDQVGAYYGDYYGMDVWGQGTLVTVSS VL: SYELTQPPSVSVSPGQTARITCSGDALPEKYAYWYQQKSGQAPVLVIYEDTKRPSGIPERFSGSSSGTMATLTISGAQVEDEADYYCYSTDSSGNHGVFGGGTKLTVL , what IC50, Eotaxin-1 assay, n = 2 is on record?
A. 0.053

Taken from patent US20220281966A1.
